target: Human immunodeficiency virus type 1 protease (Human immunodeficiency virus 1, UniProt Q72874); assay: Inhibitory activity against HIV protease
pIC50: −log10 of the molar value.
measured quantity: pIC50

Guide cases for pIC50, answers given:
Cc1ccc(C(C)(C)C)c(SC2=C(O)OC(c3ccccc3)(c3ccccc3)CC2=O)c1	7.92
CC(C)CCC1(c2ccccc2)CC(=O)C(SCc2ccccc2)=C(O)O1 (stereo not given)	7.01
O=C1CC(CC2CCCC2)(c2ccccc2)OC(O)=C1SCCc1ccccc1 (stereo not given)	6.29
O=C1CC(COc2ccccc2)(c2ccccc2)OC(O)=C1SCc1ccccc1 (stereo not given)	6.76
CC(C)CCC1(c2ccccc2)CC(=O)C(Sc2ccccc2)=C(O)O1 (stereo not given)	5.85

[a] O=C1CC(c2ccccc2)OC(O)=C1SCCc1ccccc1 (stereo not given)
[b] CC(C)c1ccccc1SC1=C(O)OC(c2ccccc2)(c2ccccc2)CC1=O
[c] CCCCCC1(c2ccccc2)CC(=O)C(SCc2ccccc2)=C(O)O1 (stereo in doubt; 15b)
[d] O=C1CC(c2ccccc2)(c2ccccc2)OC(O)=C1SCCc1ccccc1
[e] O=C1CC(c2ccccc2)(c2ccccc2)OC(O)=C1Sc1ccccc1C1CCCC1
Sort the compounds on pIC50; start with the lowest figure. List each label, following the requested order.
a, c, d, b, e

###

biological target: Human immunodeficiency virus type 1 protease (Human immunodeficiency virus 1); assay: Inhibitory activity against HIV protease
pIC50: −log10 of the molar value.
measured quantity: pIC50

[1] CC(C)CCCC1(c2ccccc2)CC(=O)C(SCCc2ccccc2)=C(O)O1 (centres undefined)
[2] O=c1cc(-c2ccccc2)oc(O)c1Sc1ccccc1
[3] CCCC1(c2ccccc2)CC(=O)C(SCCc2ccccc2)=C(O)O1 (centres undefined)
[4] CC(C)CCC1(c2ccccc2)CC(=O)C(SCCc2ccccc2)=C(O)O1 (centres undefined)
List the compounds shown above again, sorted by falling pIC50 values. List each label, following the requested order.
4, 1, 2, 3
(4: 7.02, 1: 6.81, 2: 5.51, 3: 5.29)

###

target: Human immunodeficiency virus type 1 protease (Human immunodeficiency virus 1); test: Inhibitory activity against HIV protease
pIC50: −log10 of the molar value.
measured quantity: pIC50

CCCCCCC1(c2ccccc2)CC(=O)C(SCc2ccccc2)=C(O)O1 (stereo not given)	6.74
O=C1CC(c2ccccc2)(c2ccccc2)OC(O)=C1Sc1ccccc1C1CCCCC1	6.90
CC(C)c1ccc(C(C)C)c(SC2=C(O)OC(c3ccccc3)(c3ccccc3)CC2=O)c1	6.92
CCCCC1(c2ccccc2)CC(=O)C(SCc2ccccc2)=C(O)O1 (stereo not given)	6.57
Cc1ccccc1SC1=C(O)OC(CCc2ccccc2)(c2ccccc2)CC1=O (stereo not given)	7.14

[1] NC(=O)CCCC1(c2ccccc2)CC(=O)C(SCCc2ccccc2)=C(O)O1 (stereo not given)
[2] O=C1CC(CCc2ccccc2)(c2ccccc2)OC(O)=C1SCCc1ccccc1 (stereo not given)
[3] Cc1ccc(C(C)C)c(SC2=C(O)O[C@](CCc3ccccc3)(c3ccccc3)CC2=O)c1
[4] NC(=O)CCCCC1(c2ccccc2)CC(=O)C(SCCc2ccccc2)=C(O)O1 (stereo not given)
[5] O=C1CC2(CCc3ccccc32)OC(O)=C1SCc1ccccc1 (stereo not given)
Task field, ranking: reported pIC50, descending order. List each label, following the requested order.
3, 2, 4, 1, 5
(3: 8.22, 2: 7.29, 4: 6.47, 1: 5.89, 5: 4.93)
